assay-notes: total protein half-life in vivo (active degradation + dilution); higher = more stable protein
measurement-context: wild type E. coli NCM3722; growth: C-lim chemostat; doubling time 6 h
Would you please tag the item t when its total protein half-life in vivo is 6 h or above, and f when it is below?

Reference set (2 entries):
sequence-code: MKNSKAILQVPGTMKIISAEIPVPKEDEVLIKVEYVGICGSDVHGFESGPFIPPKDPNQEIGLGHECAGTVVAVGSRVRKFKPGDRVNIEPGVPCGHCRYCLEGKYNICPDVDFMATQPNYRGALTHYLCHPESFTYKLPDNMDTMEGALVEPAAVGMHAAMLADVKPGKKIIILGAGCIGLMTLQACKCLGATEIAVVDVLEKRLAMAEQLGATVVINGAKEDTIARCQQFTEDMGADIVFETAGSAVTVKQAPYLVMRGGKIMIVGTVPGDSAINFLKINREVTIQTVFRYANRYPVTIEAISSGRFDVKSMVTHIYDYRDVQQAFEESVNNKRDIIKGVIKISD
answer-label: f
//
sequence-code: MKRAPLITGLLLISTSCAYASSGGCGADSTSGATNYSSVVDDVTVNQTDNVTGREFTSATLSSTNWQYACSCSAGKAVKLVYMVSPVLTTTGHQTGYYKLNDSLDIKTTLQANDIPGLTTDQVVSVNTRFTQIKNNTVYSAATQTGVCQGDTSRYGPVNIGANTTFTLYVTKPFLGSMTIPKTDIAVIKGAWVDGMGSPSTGDFHDLVKLSIQGNLTAPQSCKINQGDVIKVNFGFINGQKFTTRNAMPDGFTPVDFDITYDCGDTSKIKNSLQMRIDGTTGVVDQYNLVARRRSSDNVPDVGIRIENLGGGVANIPFQNGILPVDPSGHGTVNMRAWPVNLVGGELETGKFQGTATITVIVR
answer-label: t

query: Test whether the sequence MALLEICCYSMECALTAQQNGADRVELCAAPKEGGLTPSLGVLKSVRQRVTIPVHPIIRPRGGDFCYSDGEFAAILEDVRTVRELGFPGLVTGVLDVDGNVDMPRMEKIMAAAGPLAVTFHRAFDMCANPLYTLNNLAELGIARVLTSGQKSDALQGLSKIMELIAHRDAPIIMAGAGVRAENLHHFLDAGVLEVHSSAGAWQASPMRYRNQGLSMSSDEHADEYSRYIVDGAAVAEMKGIIERHQAK records total protein half-life in vivo of 6 h or higher.
result: t

query: Test whether the sequence MSTEKEKMIAGELYRSADETLSRDRLRARQLIHRYNHSLAEEHTLRQQILADLFGQVTEAYIEPTFRCDYGYNIFLGNNFFANFDCVMLDVCPIRIGDNCMLAPGVHIYTATHPIDPVARNSGAELGKPVTIGNNVWIGGRAVINPGVTIGDNVVVASGAVVTKDVPDNVVVGGNPARIIKKL records total protein half-life in vivo of 6 h or higher.
result: f

====

assay-notes: total protein half-life in vivo (active degradation + dilution); higher = more stable protein
measurement-context: E. coli NCM3722 delta-hslV; growth: N-lim chemostat; doubling time 6 h
Would you please tag the item met when its total protein half-life in vivo is 5 h or above, and not met when it is below?

sequence-code: MNKVAQYYRELVASLSERLRNGERDIDALVEQARERVIKTGELTRTEVDELTRAVRRDLEEFAMSYEESLKEESDSVFMRVIKESLWQELADITDKTQLEWREVFQDLNHHGVYHSGEVVGLGNLVCEKCHFHLPIYTPEVLTLCPKCGHDQFQRRPFEP [P0AAT9]
answer-label: not met
//
sequence-code: MVTSCTGHVLDNQRATTRGVFSSGSHLVTLHFQPHPFFSCVTDAVNGARSRFSAFYPKANYGLQGSQPSDVRAHNRAANGACDEYKQLKVLSMGRQKAVIKARREAKRVLRRDSRSHKQREEESVTSLVQMGGVEAIGMARDSRDTSPILARNEAQLHYLKAIESKQLIFATGEAGCGKTWISAAKAAEALIHKDVDRIIVTRPVLQADEDLGFLPGDIAEKFAPYFRPVYDVLVRRLGASFMQYCLRPEIGKVEIAPFAYMRGRTFENAVVILDEAQNVTAAQMKMFLTRLGENVTVIVNGDITQCDLPRGVCSGLSDALERFEEDEMVGIVRFGKEDCVRSALCQRTLHAYS [P0A9K1]
answer-label: not met
//
sequence-code: MQTKKNEIWVGIFLLAALLAALFVCLKAANVTSIRTEPTYTLYATFDNIGGLKARSPVSIGGVVVGRVADITLDPKTYLPRVTLEIEQRYNHIPDTSSLSIRTSGLLGEQYLALNVGFEDPELGTAILKDGDTIQDTKSAMVLEDLIGQFLYGSKGDDNKNSGDAPAAAPGNNETTEPVGTTK
answer-label: met
//
sequence-code: MTIHKKGQAHWEGDIKRGKGTVSTESGVLNQQPYGFNTRFEGEKGTNPEELIGAAHAACFSMALSLMLGEAGFTPTSIDTTADVSLDKVDAGFAITKIALKSEVAVPGIDASTFDGIIQKAKAGCPVSQVLKAEITLDYQLKS [P0C0L2]
answer-label: met

query: Test whether the sequence MNNRVHQGHLARKRFGQNFLNDQFVIDSIVSAINPQKGQAMVEIGPGLAALTEPVGERLDQLTVIELDRDLAARLQTHPFLGPKLTIYQQDAMTFNFGELAEKMGQPLRVFGNLPYNISTPLMFHLFSYTDAIADMHFMLQKEVVNRLVAGPNSKAYGRLSVMAQYYCNVIPVLEVPPSAFTPPPKVDSAVVRLVPHATMPHPVKDVRVLSRITTEAFNQRRKTIRNSLGNLFSVEVLTGMGIDPAMRAENISVAQYCQMANYLAENAPLQES records total protein half-life in vivo of 5 h or higher.
result: met

query: Test whether the sequence MKLVGSYTSPFVRKLSILLLEKGITFEFINELPYNADNGVAQFNPLGKVPVLVTEEGECWFDSPIIAEYIELMNVAPAMLPRDPLESLRVRKIEALADGIMDAGLVSVREQARPAAQQSEDELLRQREKINRSLDVLEGYLVDGTLKTDTVNLATIAIACAVGYLNFRRVAPGWCVDRPHLVKLVENLFSRESFARTEPPKA [P0ACA1] records total protein half-life in vivo of 5 h or higher.
result: not met

query: Test whether the sequence MTQFNPVDHPHRRYNPLTGQWILVSPHRAKRPWQGAQETPAKQVLPAHDPDCFLCAGNVRVTGDKNPDYTGTYVFTNDFAALMSDTPDAPESHDPLMRCQSARGTSRVICFSPDHSKTLPELSVAALTEIVKTWQEQTAELGKTYPWVQVFENKGAAMGCSNPHPHGQIWANSFLPNEAEREDRLQKEYFAEQKSPMLVDYVQRELADGSRTVVETEHWLAVVPYWAAWPFETLLLPKAHVLRITDLTDAQRSDLALALKKLTSRYDNLFQCSFPYSMGWHGAPFNGEENQHWQLHAHFYPPLLRSATVRKFMVGYEMLAETQRDLTAEQAAERLRAVSDIHFRESGV records total protein half-life in vivo of 5 h or higher.
result: not met

query: Test whether the sequence MKCPVCHQGEMVSGIKDIPYTFRGRKTVLKGIHGLYCVHCEESIMNKEESDAFMAQVKAFRASVNAETVAPEFIVKVRKKLSLTQKEASEIFGGGVNAFSRYEKGNAQPHPSTIKLLRVLDKHPELLNEIR records total protein half-life in vivo of 5 h or higher.
result: not met

query: Test whether the sequence MERVSITERPDWREKAHEYGFNFHTMYGEPYWCEDAYYKLTLAQVEKLEEVTAELHQMCLKVVEKVIASDELMTKFRIPKHTWSFVRQSWLTHQPSLYSRLDLAWDGTGEPKLLENNADTPTSLYEAAFFQWIWLEDQLNAGNLPEGSDQFNSLQEKLIDRFVELREQYGFQLLHLTCCRDTVEDRGTIQYLQDCATEAEIATEFLYIDDIGLGEKGQFTDLQDQVISNLFKLYPWEFMLREMFSTKLEDAGVRWLEPAWKSIISNKALLPLLWEMFPNHPNLLPAYFAEDDHPQMEKYVVKPIFSREGANVSIIENGKTIEAAEGPYGEEGMIVQQFHPLPKFGDSYMLIGSWLVNDQPAGIGIREDRALITQDMSRFYPHIFVE [P0ADT5] records total protein half-life in vivo of 5 h or higher.
result: not met

query: Test whether the sequence MTETIKVSESLELHAVAENHVKPLYQLICKNKTWLQQSLNWPQFVQSEEDTRKTVQGNVMLHQRGYAKMFMIFKEDELIGVISFNRIEPLNKTAEIGYWLDESHQGQGIISQALQALIHHYAQSGELRRFVIKCRVDNPQSNQVALRNGFILEGCLKQAEFLNDAYDDVNLYARIIDSQ records total protein half-life in vivo of 5 h or higher.
result: not met

query: Test whether the sequence MNNHFKCIGIVGHPRHPTALTTHEMLYRWLCTKGYEVIVEQQIAHELQLKNVKTGTLAEIGQLADLAVVVGGDGNMLGAARTLARYDIKVIGINRGNLGFLTDLDPDNAQQQLADVLEGHYISEKRFLLEAQVCQQDCQKRISTAINEVVLHPGKVAHMIEFEVYIDEIFAFSQRSDGLIISTPTGSTAYSLSAGGPILTPSLDAITLVPMFPHTLSARPLVINSSSTIRLRFSHRRNDLEISCDSQIALPIQEGEDVLIRRCDYHLNLIHPKDYSYFNTLSTKLGWSKKLF [P0A7B3] records total protein half-life in vivo of 5 h or higher.
result: met

query: Test whether the sequence MNMKTIEDVFIHLLSDTYSAEKQLTRALAKLARATSNEKLSQAFHAHLEETHGQIERIDQVVESESNLKIKRMKCVAMEGLIEEANEVIESTEKNEVRDAALIAAAQKVEHYEIASYGTLATLAEQLGYRKAAKLLKETLEEEKATDIKLTDLAINNVNKKAENKA records total protein half-life in vivo of 5 h or higher.
result: met
